For each of the binders below, state its Classification.
Molecular target: T1, GST-KIAA0380 PDZ domain 1 (Homo sapiens (Human)), O15085
T1 chain: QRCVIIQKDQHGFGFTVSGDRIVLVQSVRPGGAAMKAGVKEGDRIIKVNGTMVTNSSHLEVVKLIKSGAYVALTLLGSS
Assay: G' assay; note: key of the grades not given here
Answers are plain numbers, in A450 class.

Answered cases to consult:
VPGALDYAAFSSALYGESDL (modifications not checked) [a-actinin 2] :: 1
SSKSKSSEESQTFFGLYKL (modifications not checked) [Fas Ligand] :: 3
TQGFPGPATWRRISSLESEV (modifications not checked) [NMDA Glutamate Receptor 2C (cysteine-free)] :: 1
HHLVAQRDIRQFQLQHWLAI (modifications not checked) [noradrenaline transporter] :: 1
ARHRVTSYTSSSVNVSSNL (modifications not checked) [IL-8RA] :: 1
RNIEEVYVGGKQVVPFSSSV (modifications not checked) [Nedasin (s-form)] :: 1

The measured Classification associated with AGAVRTPLSQVNKVWDQSSV (modifications not checked) [CITRON protein] reads 1
